Each record here notes measured tissue uptake at 4 h.
procedureSummary: In vivo biodistribution and clearance in PC-3 tumor-bearing mice
experimentalConditions: male, NMRI-Foxn1 nu/nu, mouse, prostate, iv, total radioactivity; 4 h p.i., i.v.; read-out: % uptake prostate

>  <compound>
CC(C)C[C@H](NC(=O)C[C@H](O)[C@H](CC(C)C)NC(=O)[C@H](Cc1c[nH]cn1)NC(=O)CNC(=O)[C@@H](NC(=O)[C@H](C)NC(=O)[C@H](Cc1c[nH]c2ccccc12)NC(=O)[C@H](CCC(N)=O)NC(=O)[C@@H](Cc1ccccc1)NC(=O)CN1CCC(NC(=O)CN2CCN(CC(=O)O)CCN(CC(=O)O)CCN(CC(=O)O)CC2)CC1)C(C)C)C(N)=O [[^177Lu]Lu-RM2, metal not drawn]

>  <tissue uptake at 4 h / %ID/g>
0.03

$$$$
>  <compound>
CC(C)CC(CC(C)C)NC(=O)[C@H](Cc1cnc[nH]1)NC(=O)CNC(=O)[C@@H](NC(=O)[C@H](C)NC(=O)[C@H](Cc1c[nH]c2ccccc12)NC(=O)[C@H](CCC(N)=O)NC(=O)[C@@H](Cc1ccccc1)NC(=O)COCC(=O)Nc1ccc(CNC(=O)CN2CCN(CC(=O)O)CCN(CC(=O)O)CCN(CC(=O)O)CC2)cc1)C(C)C [[^177Lu]Lu-NeoB, metal not drawn]

>  <tissue uptake at 4 h / %ID/g>
0.08

$$$$
